Test system: ErbB-3 or ErbB-4 receptors
measurement description: Alanine scan of the HRG-β1 EGF-like domain by phage ELISA (FIG. 2)
Format: binding
test context: ratio of variant EC50 to wild-type EC50
measure: effect of substitution with alanine on affinity for the ErbB-3 or ErbB-4 receptors

{"molecule": "P205: HRG-β1 variant with P205 mutated to alanine (protein, left off: large carriers; small tags and cut ends, HRG-β1 variant with P205 mutated to alanine) SHLVKCAEKEKTFCVNGGECFMVKDLSNASRYLCKCPNEFTGDRCQNYVMASFYKHLGIEFMEAEELY", "observed result": "two"}
{"molecule": "V199: HRG-β1 variant with V199 mutated to alanine (protein, left off: large carriers; small tags and cut ends, HRG-β1 variant with V199 mutated to alanine) SHLVKCAEKEKTFCVNGGECFMAKDLSNPSRYLCKCPNEFTGDRCQNYVMASFYKHLGIEFMEAEELY", "observed result": "two"}
{"molecule": "K200: HRG-β1 variant with K200 mutated to alanine (protein, left off: large carriers; small tags and cut ends, HRG-β1 variant with K200 mutated to alanine) SHLVKCAEKEKTFCVNGGECFMVADLSNPSRYLCKCPNEFTGDRCQNYVMASFYKHLGIEFMEAEELY", "observed result": "two"}
